The reported measurements were obtained from patent US20210130436A1.

- targetSystem: T1, human PD-L1 (full-length, expressed on CHO cells) (human, UniProt Q9NZQ7 19-290)
- T1 construct: also called huPD-L1; CD274
- T1 sequence (Q9NZQ7 19-290): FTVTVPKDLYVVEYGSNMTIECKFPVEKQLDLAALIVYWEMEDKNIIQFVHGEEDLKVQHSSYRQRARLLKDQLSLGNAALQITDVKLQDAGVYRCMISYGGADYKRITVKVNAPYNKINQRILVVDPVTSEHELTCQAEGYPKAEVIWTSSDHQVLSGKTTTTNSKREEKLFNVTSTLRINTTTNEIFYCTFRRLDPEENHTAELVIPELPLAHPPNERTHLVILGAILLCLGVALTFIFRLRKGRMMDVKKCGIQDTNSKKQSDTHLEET
- procedureText: flow cytometry, CHO cells expressing huPD-L1, PE anti-human Fc
measure: MFI at 33.3 nM (MFI)

variant CD80 IgV-Fc Q33L/E35D/T41S/M47V (Fc fusion, not shown: a dimerising Fc or GST) VIHVTKEVKEVATLSCGHNVSVEELAQTRIYWLKDKKMVLSMMSGDVNIWPEYKNRTIFDITNNLSIVILALRPSDEGTYECVVLKYEKDAFKREHLAEVTLSVKAD
43800

1: variant CD80 IgV-Fc A26E/Q33L/E35D/M47L (Fc fusion, not shown: a dimerising Fc or GST) VIHVTKEVKEVATLSCGHNVSVEELEQTRIYWLKDKKMVLTMMSGDLNIWPEYKNRTIFDITNNLSIVILALRPSDEGTYECVVLKYEKDAFKREHLAEVTLSVKAD
2: variant CD80 IgV-Fc E7D/E35D/M47I/L97Q (Fc fusion, not shown: a dimerising Fc or GST) VIHVTKDVKEVATLSCGHNVSVEELAQTRIYWQKDKKMVLTMMSGDINIWPEYKNRTIFDITNNLSIVILALRPSDEGTYECVVLKYEKDAFKREHQAEVTLSVKAD
Task: Would you kindly point out which of 1 and 2 has the smaller MFI at 33.3 nM figure? Selection: enter the item's label.
Result: 2
